Please provide measured IC50 for the entries that follow.
Just the number in nM, nothing appended.

Observed IC50 on Poly [ADP-ribose] polymerase 1 (Homo sapiens) for NC(=O)c1cccc2[nH]c(NC(=O)c3cccc(C(=O)N4CCC(Nc5ncc(Br)cn5)CC4)c3)nc12 , please. 37

API: value(readout=IC50, system=Poly [ADP-ribose] polymerase 1 (Homo sapiens)) for record NC(=O)c1cccc2[nH]c(NC(=O)c3cccc(C(=O)N4CCC(Nc5ncc(C(F)(F)F)cn5)CC4)c3)nc12 167

Form field: IC50 recorded for NC(=O)c1cccc2[nH]c(NC(=O)c3cccc(C(=O)N4CCC(Nc5ncc(Cl)cn5)CC4)c3)nc12 with Poly [ADP-ribose] polymerase 1 (Homo sapiens) (enter value) 43

###

- ASSAY_NOTES: Cmax in Sprague-Dawley rat at 1 mg/kg, iv measured upto 24 hrs by LC-MS/MS analysis
- Format: ADME, organism-based
- EXPERIMENTAL_CONDITIONS: in vivo
PROPERTY_LABEL: Cmax (ng/mL)
The reply should contain only the number, in ng/mL.

Fill in: Cmax of NC(=O)c1cccc2[nH]c(NC(=O)c3cccc(C(=O)N4CCC(Nc5ncc(I)cn5)CC4)c3)nc12 is ___ 2130

###

- ASSAY_NOTES: Clearance in Sprague-Dawley rat at 1 mg/kg, iv measured upto 24 hrs by LC-MS/MS analysis
- Assay type: ADME, organism-based
- EXPERIMENTAL_CONDITIONS: in vivo
PROPERTY_LABEL: clearance (mL/min/kg)
Please reply with the bare figure in mL/min/kg and do not write the unit itself.

Query: clearance; subject: NC(=O)c1cccc2[nH]c(NC(=O)c3cccc(C(=O)N4CCC(Nc5ncc(I)cn5)CC4)c3)nc12 12.5

###

- ASSAY_NOTES: AUC (0 to infinity) in Sprague-Dawley rat at 1 mg/kg, iv measured upto 24 hrs by LC-MS/MS analysis
- Assay type: ADME, organism-based
- EXPERIMENTAL_CONDITIONS: in vivo
PROPERTY_LABEL: AUC(0-inf) (ng·h/mL)
# output: bare number, implied unit ng·h/mL

Fill in the blank: the reported AUC(0-inf) of NC(=O)c1cccc2[nH]c(NC(=O)c3cccc(C(=O)N4CCC(Nc5ncc(I)cn5)CC4)c3)nc12 is ____. 1340

###

- ASSAY_NOTES: Cmax in Sprague-Dawley rat at 10 mg/kg, po measured upto 24 hrs by LC-MS/MS analysis
- Format: ADME, organism-based
- EXPERIMENTAL_CONDITIONS: in vivo
PROPERTY_LABEL: Cmax (µg/mL)
Report the value in µg/mL with no unit label.

Need Cmax of NC(=O)c1cccc2[nH]c(NC(=O)c3cccc(C(=O)N4CCC(Nc5ncc(I)cn5)CC4)c3)nc12 , thanks. 0.0122

###

- ASSAY_NOTES: AUC (0 to t) in Sprague-Dawley rat at 1 mg/kg, iv measured upto 24 hrs by LC-MS/MS analysis
- Assay type: ADME, organism-based
- EXPERIMENTAL_CONDITIONS: in vivo
PROPERTY_LABEL: AUC(0-t) at 24 h

Which AUC(0-t) at 24 h is reported for this compound? NC(=O)c1cccc2[nH]c(NC(=O)c3cccc(C(=O)N4CCC(Nc5ncc(I)cn5)CC4)c3)nc12 1250 ng·h/mL

FYI, the data here is from ChEMBL document CHEMBL5625183.
